Could you please report measured IC50 for the items listed next?
# experimental-system: rat NaP2b (SLC34A2) (Rattus norvegicus)
# Construct: host or cells: HEK293
# Sequence (Q9JJ09 whole entry): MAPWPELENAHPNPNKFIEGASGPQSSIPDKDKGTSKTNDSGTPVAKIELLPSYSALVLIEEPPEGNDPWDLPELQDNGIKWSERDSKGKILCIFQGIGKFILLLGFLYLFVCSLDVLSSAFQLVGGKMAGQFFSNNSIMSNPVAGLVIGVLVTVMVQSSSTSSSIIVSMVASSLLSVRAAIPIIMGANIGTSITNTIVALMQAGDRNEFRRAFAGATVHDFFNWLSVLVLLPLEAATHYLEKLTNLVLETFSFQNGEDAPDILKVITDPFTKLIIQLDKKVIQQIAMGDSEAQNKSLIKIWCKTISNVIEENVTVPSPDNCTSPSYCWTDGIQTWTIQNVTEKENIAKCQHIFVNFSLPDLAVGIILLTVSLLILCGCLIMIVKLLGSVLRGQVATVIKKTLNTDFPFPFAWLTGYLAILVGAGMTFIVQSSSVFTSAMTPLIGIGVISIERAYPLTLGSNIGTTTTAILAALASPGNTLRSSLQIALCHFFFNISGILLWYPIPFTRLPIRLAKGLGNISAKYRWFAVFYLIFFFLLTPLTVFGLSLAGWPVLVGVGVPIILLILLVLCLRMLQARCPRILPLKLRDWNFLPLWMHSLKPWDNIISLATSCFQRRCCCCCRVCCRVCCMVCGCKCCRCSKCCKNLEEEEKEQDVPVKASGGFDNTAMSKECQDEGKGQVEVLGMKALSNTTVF
# experiment-description: Inhibition of NaP2b-mediated Pi (33P) uptake in transfected HEK293 cells, rat NaP2b
# Type: cell-based
# condition-info: 33P Pi uptake, 0.1 mM phosphate, value given as pIC50 range

Can you give me IC50 for all of these, one by one?
1. CCN(CCN1CCOCC1)C(=O)c1cccc(C(=O)Nc2ccc(N3CCCCC3)cc2-c2cc(C(=O)NCc3cccc(C(F)(F)F)c3)ccn2)c1
2. CN(CCN1CCOCC1)C(=O)c1cccc(C(=O)Nc2ccc(N3CCCCC3)cc2-c2cc(SCc3ccccc3)ccn2)c1
3. O=C(O)c1cccc(COc2cccc(C(=O)Nc3ccc(N4CCCCC4)cc3-c3cc(C(=O)NCc4cccc(C(F)(F)F)c4)ccn3)c2)c1
4. CC(=O)NC1CCN(Cc2cccc(C(=O)Nc3ccc(N4CCCCC4)cc3-c3cc(C(=O)NCc4cccc(C(F)(F)F)c4)ccn3)n2)CC1

1 to 7.94 µM
1 to 7.94 µM
1 to 7.94 µM
10 to 31.6 µM

Each compound below has a recorded value; state its IC50.
1. CN(CCNC(=O)OC(C)(C)C)C(=O)c1cccc(C(=O)Nc2ccc(N3CCCCC3)cc2-c2cc(C(=O)NCc3cccc(C(F)(F)F)c3)ccn2)c1
2. O=C(O)CCSCc1cccc(C(=O)Nc2ccc(N3CCCCC3)cc2-c2cc(C(=O)NCc3cccc(N4CCCCC4)c3)ccn2)c1
3. COCCOCCOCCOCCOCCOCCOCCOCCOCc1cccc(C(=O)Nc2ccc(OC3CCC3)cc2-c2cc(C(=O)NCc3cccc(C(F)(F)F)c3)ccn2)c1
4. CC(NC(=O)c1ccnc(-c2cc(N3CCCCC3)ccc2NC(=O)c2cccc(CSCCC(=O)O)c2)c1)c1cccc(C(F)(F)F)c1 (centres unmarked)

["10 to 31.6 µM", "1 to 7.94 µM", "1 to 7.94 µM", "1 to 7.94 µM"]

For each of the items listed, what is its IC50?
1. CCN(CC)c1ccc(NC(=O)c2cccc(C(=O)N(C)CCN3CCCC[C@H]3C(=O)NCCOCCOCCOCCOCCOCCOCCOCCOC)c2)c(-c2cc(C(=O)NCc3cccc(C(F)(F)F)c3)ccn2)c1
2. O=C(NCc1cccc(C(F)(F)F)c1)c1ccnc(-c2cc(N3CCCCC3)ccc2NC(=O)c2cccc(CSCCCS(=O)(=O)O)c2)c1
3. CCN(CC)c1ccc(NC(=O)c2cccc(C(=O)N(C)CCN(C)CCOCCOCCOCCNC(C)=O)c2)c(-c2cc(C(=O)N[C@H]3CCCc4ccccc43)ccn2)c1
4. O=C(O)c1cccc(SCc2cccc(C(=O)Nc3ccc(Cl)cc3-c3cc(C(=O)NCc4cccc(C(F)(F)F)c4)ccn3)c2)c1
5. O=C(O)c1cccc(CSCc2cccc(C(=O)Nc3ccc(N4CCCCC4)cc3-c3cc(C(=O)NCc4cccc(C(F)(F)F)c4)ccn3)c2)c1
6. CCN(CC)c1ccc(NC(=O)c2cccc(CCCOCCOCCOCCOCCC(=O)N3CCN(CCOCCOCCOCCOCCOCCOCCOC)C(=O)C3)c2)c(-c2cc(C(=O)NCc3cccc(C(F)(F)F)c3)ccn2)c1
7. CN(CCOCCOCCOCCC(=O)O)C(=O)Cc1cccc(SCc2cccc(C(=O)Nc3ccc(N4CCCCC4)cc3-c3cc(C(=O)N[C@H]4CCCc5ccccc54)ccn3)c2)c1
8. O=C(O)CC1CCN(C(=O)c2cccc(C(=O)Nc3ccc(N4CCCCC4)cc3-c3cc(C(=O)NCc4cccc(C(F)(F)F)c4)ccn3)c2)CC1

1: 1 to 7.94 µM; 2: 10 to 31.6 µM; 3: 1 to 7.94 µM; 4: 1 to 7.94 µM; 5: 1 to 7.94 µM; 6: 1 to 7.94 µM; 7: < 1 µM; 8: 10 to 31.6 µM
